Here's a batch of compounds along with measured Ki for UniProtKB Q9Y5N1.
metric_name: Ki (nM)

>>> df
                                   compound  units_of_measure  reading
0  C(#Cc1cccc2ccccc12)c1cccc(Cc2c[nH]cn2)c1                nM     1740
1           c1nc(CC2CCNCC2)c[nH]1 [IMMEPIP]                nM    0.407
2       CC1(C)COC(c2cccc(Cc3c[nH]cn3)c2)=N1                nM     3.98
3                  N#Cc1cccc(Cc2c[nH]cn2)c1                nM      155
4          CC(C)(C)C#Cc1ccc(Cc2c[nH]cn2)cc1                nM      537
5   c1cc(Cc2cnc[nH]2)cc(C2=NC3(CCCC3)CO2)c1                nM     39.8

###

- tested_system: Histamine H3 receptor (Homo sapiens, UniProt Q9Y5N1)
- Sequence (Q9Y5N1 whole entry): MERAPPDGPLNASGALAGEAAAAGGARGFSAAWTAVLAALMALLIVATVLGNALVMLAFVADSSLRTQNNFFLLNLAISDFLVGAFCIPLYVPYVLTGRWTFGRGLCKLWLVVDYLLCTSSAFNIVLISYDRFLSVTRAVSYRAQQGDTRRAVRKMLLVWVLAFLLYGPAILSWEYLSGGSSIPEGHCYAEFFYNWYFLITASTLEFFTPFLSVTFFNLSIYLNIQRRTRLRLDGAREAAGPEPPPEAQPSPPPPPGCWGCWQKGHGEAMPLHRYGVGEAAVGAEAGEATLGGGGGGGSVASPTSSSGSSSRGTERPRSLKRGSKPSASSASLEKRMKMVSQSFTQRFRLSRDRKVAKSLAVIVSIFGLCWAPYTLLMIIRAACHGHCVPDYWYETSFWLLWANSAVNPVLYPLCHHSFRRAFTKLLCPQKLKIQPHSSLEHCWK
- assay_remarks: Agonist activity at human histamine H3 receptor assessed as effect on [35S]GTPgammaS binding
- Assay type: functional
pEC50: −log10 of the molar value.
Lab note: compare pEC50 against 8. Equal or greater, write 1. Smaller, write 0.

>>> df
                                   molecule  assigned_class
0                   Brc1ccc(Cc2c[nH]cn2)cc1               0
1  CC1CC(C)(C)N=C(c2cccc(Cc3c[nH]cn3)c2)O1 (configuration not stated)               1
2          c1ccc(-c2cccc(Cc3cnc[nH]3)c2)cc1               0
3       CC(C)(C)CC(=O)c1cccc(Cc2cnc[nH]2)c1               0
4  c1ccc(C[C@@H]2COC(c3cccc(Cc4cnc[nH]4)c3)=N2)cc1               0

###

The reader will find reported Ki values listed item by item below.
- tested_system: Histamine H4 receptor (Homo sapiens)
- Sequence (Q9H3N8 whole entry): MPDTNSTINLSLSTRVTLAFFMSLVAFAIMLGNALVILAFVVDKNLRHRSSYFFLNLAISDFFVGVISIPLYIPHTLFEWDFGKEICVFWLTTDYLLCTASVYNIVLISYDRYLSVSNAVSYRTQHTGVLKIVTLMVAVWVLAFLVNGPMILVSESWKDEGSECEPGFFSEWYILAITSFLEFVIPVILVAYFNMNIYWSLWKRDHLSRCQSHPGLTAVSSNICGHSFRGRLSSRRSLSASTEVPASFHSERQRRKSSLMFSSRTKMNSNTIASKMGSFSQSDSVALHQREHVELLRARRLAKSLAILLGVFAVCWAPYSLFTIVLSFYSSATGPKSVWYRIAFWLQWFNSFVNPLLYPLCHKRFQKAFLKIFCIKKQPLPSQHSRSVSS
metric_name: Ki (nM)

>>> print(df.to_string())
                                   compound  units_of_measure  reading
0  CC1CC(C)(C)N=C(c2cccc(Cc3c[nH]cn3)c2)O1 (stereo not drawn)                nM     8.32
1          CC(C)(C)C#Cc1cccc(Cc2c[nH]cn2)c1                nM     5.62
2       CC(C)(C)CC(=O)c1cccc(Cc2cnc[nH]2)c1                nM     5.62

###

- tested_system: Histamine H3 receptor (Cavia porcellus)
pKi: −log10 of the molar value.
metric_name: pKi

>>> df
         molecule  reading
0  CNCCc1c[nH]cn1     8.60

###

- assay_remarks: Inhibition of […] in human liver microsomes assessed as midazolam 1'-hydroxylase activity
- Format: ADME, Microsome
Note to self: use rule met only for IC50 readings below 2000 nM; a reading exactly at 2000 nM still gets rule not met.

>>> df
                                   molecule  assigned_class
0  CC1CC(C)(C)N=C(c2cccc(Cc3c[nH]cn3)c2)O1 (stereo unspecified)        rule met
1        C(#Cc1cccc(Cc2c[nH]cn2)c1)c1ccccc1    rule not met
2       CC1(C)COC(c2ccc(Cc3c[nH]cn3)cc2)=N1    rule not met
3          CC(C)(C)C#Cc1cccc(Cc2c[nH]cn2)c1        rule met
4       CC(C)(C)CC(=O)c1cccc(Cc2c[nH]cn2)c1        rule met
5               CCCC#Cc1cccc(Cc2c[nH]cn2)c1        rule met

###

Here's a batch of compounds along with measured IC50 for Cytochrome P450 2D6 (Homo sapiens).
metric_name: IC50 (nM)

>>> df
                                   compound  units_of_measure  reading
0       CC1(C)COC(c2ccc(Cc3c[nH]cn3)cc2)=N1                nM      543
1        C(#Cc1cccc(Cc2c[nH]cn2)c1)c1ccccc1                nM      488
2  CC1CC(C)(C)N=C(c2cccc(Cc3c[nH]cn3)c2)O1 (stereo unspecified)                nM      292
3          CC(C)(C)C#Cc1cccc(Cc2c[nH]cn2)c1                nM     1780
4       CC(C)(C)CC(=O)c1cccc(Cc2cnc[nH]2)c1                nM     1930
5               CCCC#Cc1cccc(Cc2c[nH]cn2)c1                nM      644

###

- tested_system: Histamine H3 receptor (Cavia porcellus, UniProt Q9JI35)
- Sequence (Q9JI35 whole entry): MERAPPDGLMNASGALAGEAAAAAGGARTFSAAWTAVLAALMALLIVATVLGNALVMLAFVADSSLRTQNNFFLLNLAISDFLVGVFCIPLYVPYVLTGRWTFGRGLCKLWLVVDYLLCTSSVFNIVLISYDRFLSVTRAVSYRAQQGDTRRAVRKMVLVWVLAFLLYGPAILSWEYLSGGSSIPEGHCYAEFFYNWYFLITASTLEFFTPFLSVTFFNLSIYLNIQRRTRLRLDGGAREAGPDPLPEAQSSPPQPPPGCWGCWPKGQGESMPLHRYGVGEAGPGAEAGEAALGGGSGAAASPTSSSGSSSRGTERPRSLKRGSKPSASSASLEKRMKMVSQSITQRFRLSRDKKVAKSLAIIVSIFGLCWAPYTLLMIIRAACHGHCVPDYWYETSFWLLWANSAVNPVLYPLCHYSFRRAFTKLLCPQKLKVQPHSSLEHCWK
- assay_remarks: Antagonist activity at guinea pig histamine H3 receptor assessed as inhibition of electrically induced twitch contraction
- Assay type: functional
- setup_conditions: read-out: pA2 (converted)
metric_name: Kb (nM)

>>> print(df.to_string())
                                   compound  units_of_measure  reading
0  c1ccc(C[C@@H]2COC(c3cccc(Cc4cnc[nH]4)c3)=N2)cc1                nM     2240
1       CC(C)(C)CC(=O)c1cccc(Cc2cnc[nH]2)c1                nM      955
2          CC(C)(C)C#Cc1cccc(Cc2c[nH]cn2)c1                nM     79.4
3  CC1CC(C)(C)N=C(c2cccc(Cc3c[nH]cn3)c2)O1 (centres undefined)                nM     3.98

###

- tested_system: Histamine H3 receptor (Homo sapiens)
- assay_remarks: Agonist activity at human histamine H3 receptor assessed as beta galactosidase activity
- Assay type: functional
metric_name: EC50 (nM)

>>> print(df.to_string())
                molecule  units_of_measure  reading
0  c1cc(Cc2cnc[nH]2)ccn1                nM      0.2
1         CCCCc1c[nH]cn1                nM     31.6

###

- tested_system: Histamine H3 receptor (Homo sapiens, UniProt Q9Y5N1)
- assay_remarks: Displacement of [3H]N-alpha-methylhistamine from human histamine H3 receptor expressed in CHO cells
- Assay type: cell-based
pKi: −log10 of the molar value.
The reader will find reported pKi values listed item by item below.
metric_name: pKi

In [3]: df
Out[3]:
                                   compound  reading
0                    Nc1ccc(Cc2c[nH]cn2)cc1     6.59
1  CC(C)(C)CCC#C[C@@H]1C[C@H]1c1c[nH]cn1 (single isomer, unassigned) [CIPRALISANT]     8.40
2          CC(C)(C)C#Cc1cccc(Cc2c[nH]cn2)c1     8.35
3                            CCCCc1c[nH]cn1     7.60
4          c1ccc(-c2cccc(Cc3c[nH]cn3)c2)nc1     7.39
